assay.info: Evaluation of stability in liver microsome
setup.conditions: mouse liver microsome, 1 μM, 37° C. for 30 minutes
# Remaining (%) values compiled below
Please give the number followed by its unit.

The following compounds have reported results that may help.
                                   compound  value_measured
0  COCc1ccc(NC(=O)c2c(C#CCCN3CCOCC3)n(C3(C)CC3)c3ncnc(N)c23)cc1             68%
1  COCc1ccc(NC(=O)c2c(C#CCN3CC[S+]([O-])CC3)n(C3(C)CC3)c3ncnc(N)c23)cc1             88%
2  CCC(O)CC#Cc1c(C(=O)Nc2ccc(COC)cc2)c2c(N)ncnc2n1C1(C)CC1 (centres unmarked)             59%
3  COCc1ccc(NC(=O)c2c(OCCN3CCCC3=O)n(C3(C)CC3)c3ncnc(N)c23)cc1             78%
4  COCc1ccc(NC(=O)c2cn(C(C)(C)C)c3ncnc(N)c23)c(OC)c1             57%
5  COCc1ccc(NC(=O)c2c(-c3ccc(N4CCN(C)CC4)cc3)n(C3(C)CC3)c3ncnc(N)c23)cc1             77%

Continue with the compound presented below.
Looking up COCc1ccc(NC(=O)c2c(OCC3CCCC3)n(C3(C)CC3)c3ncnc(N)c23)cc1 , I found its Remaining (%) recorded as 52%
